Source: patent US20240189392A1

# target-desc: T1, human RXFP1 (human, UniProt Q9HBX9 1-757)
# T1 sequence (looked up): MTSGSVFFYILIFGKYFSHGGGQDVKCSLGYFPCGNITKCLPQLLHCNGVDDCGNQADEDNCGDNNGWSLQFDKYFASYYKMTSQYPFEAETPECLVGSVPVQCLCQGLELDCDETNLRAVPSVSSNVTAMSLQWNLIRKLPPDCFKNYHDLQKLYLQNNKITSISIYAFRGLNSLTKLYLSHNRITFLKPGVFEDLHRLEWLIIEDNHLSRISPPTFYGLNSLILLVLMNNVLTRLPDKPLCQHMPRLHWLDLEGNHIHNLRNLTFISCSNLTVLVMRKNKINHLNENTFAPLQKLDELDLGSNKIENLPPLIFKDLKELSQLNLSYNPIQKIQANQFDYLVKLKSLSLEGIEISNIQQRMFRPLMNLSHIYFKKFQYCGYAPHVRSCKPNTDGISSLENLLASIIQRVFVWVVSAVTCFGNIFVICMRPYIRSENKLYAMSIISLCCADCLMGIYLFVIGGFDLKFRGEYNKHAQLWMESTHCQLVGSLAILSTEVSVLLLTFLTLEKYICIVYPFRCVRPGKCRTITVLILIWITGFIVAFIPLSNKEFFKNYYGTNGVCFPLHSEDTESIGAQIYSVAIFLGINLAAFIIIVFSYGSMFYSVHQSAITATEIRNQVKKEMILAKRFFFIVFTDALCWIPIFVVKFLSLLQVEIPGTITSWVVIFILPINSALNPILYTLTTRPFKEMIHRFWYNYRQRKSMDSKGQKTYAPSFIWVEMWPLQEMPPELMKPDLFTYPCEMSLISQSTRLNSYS
# protocol-notes: cell-based or functional assay
Non-standard residues stand in square brackets, D forms with d. No end group written: not given here. PEG20K = 20 kDa polyethylene glycol, linked to pAF (e.g. via oxime linkage); Phe(4-Ac) = CC(=O)c1ccc(C[C@H](N)C(=O)O)cc1
experimental-endpoint: In vitro Activity Fold Loss (fold)
All answers are understood in fold, so give the number only.

RLX-A-BW28-20KPEG (ligand, not fully specified (bridges); ends and bridges not checked) chain 1: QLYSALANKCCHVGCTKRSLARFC chain 2: ASWMEEVIKLCGRELVRAQIAICGMST[Phe(4-Ac)](PEG20K)S	48

Next binder, In vitro Activity Fold Loss to be filled in.
Query string: // query In vitro Activity Fold Loss value for entry RLX-A-AR18-20KPEG (ligand, not fully specified; para-acetylphenylalanine (pAF) at position 18 of the A chain, 20K PEGylated) chain 1: QLYSALANKCCHVGCTKXSLARFC chain 2: ASWMEEVIKLCGRELVRAQIAICGMSTWS
Result string: 21
